# System: established cell line from human large intestine cancer
# assay-name: MTT cytotoxicity assay (anticancer effect)
# Assay type: cell-based
# measurement-context: Homo sapiens; anticancer agent 1 μM/ml, 48 hours incubation; read-out: Survival rate of cancer cells
# maps each entry to its viability at 1 µM
measured-attribute: viability at 1 µM (%)

CC(C)(C)[Si](C)(C)OOC1(c2ccccc2)N=C(c2ccccc2)N=C1c1ccccc1 (stereo not drawn) = 97.2
OOC1(c2ccccc2)N=C(c2cccc(O)c2)N=C1c1ccccc1 (stereo not drawn) = 93.3
Nc1ccc(C2=NC(OO)(c3ccccc3)C(c3ccccc3)=N2)cc1 (stereo not drawn) = 100
CN(C)c1ccc(C2=NC(OO)(c3ccc(F)cc3)C(c3ccc(F)cc3)=N2)cc1 (stereo not drawn) = 100
OOC1(c2ccccc2)N=C(c2ccccc2)N=C1c1ccccc1 (stereo not drawn) = 100
OOC1(c2ccccc2)N=C(c2ccc(O)cc2)N=C1c1ccccc1 (stereo not drawn) = 91.9

----------
# assay-name: Solution reaction heat of chemiluminescent reaction started with 1N KOH/MeOH
# Assay type: physicochemical
Labelling field: enter Satisfied if recorded Solution Reaction heat is less than 50 kcal/mol. Enter Not satisfied if it equals or exceeds that cut-off.

O=Cc1ccc(C2=NC(OO)(c3ccccc3)C(c3ccccc3)=N2)cc1 (stereo not drawn) [Chemical formula K] = Satisfied
Cc1cc(C)c(C2=NC(OO)(c3ccccc3)C(c3ccccc3)=N2)c(C)c1 (stereo not drawn) [Chemical formula L] = Not satisfied
CN(C)c1ccc(C2=NC(OO)(c3ccc(F)cc3)C(c3ccc(F)cc3)=N2)cc1 (stereo not drawn) [Chemical formula B] = Not satisfied
OOC1(c2ccccc2)N=C(c2ccccc2)N=C1c1ccccc1 (stereo not drawn) [Chemical formula A] = Not satisfied
Nc1ccc(C2=NC(OO)(c3ccccc3)C(c3ccccc3)=N2)cc1 (stereo not drawn) [Chemical formula H] = Satisfied

----------
# assay-name: Solid-state reaction heat by differential thermal analyzer (DSC-50)
# Type: physicochemical
# measurement-context: solid state, heated to 80-180° C., peroxides
measured-attribute: Solid reaction heat (kcal/mol)

Cc1cc(C)c(C2=NC(OO)(c3ccccc3)C(c3ccccc3)=N2)c(C)c1 (stereo not drawn) = 50.5
OOC1(c2ccccc2)N=C(c2ccc(O)cc2)N=C1c1ccccc1 (stereo not drawn) = 53.6
O=Cc1ccc(C2=NC(OO)(c3ccccc3)C(c3ccccc3)=N2)cc1 (stereo not drawn) = 15.0
CN(C)c1ccc(C2=NC(OO)(c3ccc(F)cc3)C(c3ccc(F)cc3)=N2)cc1 (stereo not drawn) = 61.0
OOC1(c2ccccc2)N=C(c2cccc(O)c2)N=C1c1ccccc1 (stereo not drawn) = 47.6
CC(C)(C)[Si](C)(C)OOC1(c2ccccc2)N=C(c2ccccc2)N=C1c1ccccc1 (stereo not drawn) = 91.4
O=[N+]([O-])c1ccc(C2=NC(OO)(c3ccccc3)C(c3ccccc3)=N2)cc1 (stereo not drawn) = 52.3
Nc1ccc(C2=NC(OO)(c3ccccc3)C(c3ccccc3)=N2)cc1 (stereo not drawn) = 35.3
OOC1(c2ccccc2)N=C(c2ccccc2)N=C1c1ccccc1 (stereo not drawn) = 18.7

----------
# assay-name: Solid-state reaction heat by differential thermal analyzer (DSC-50)
# Type: physicochemical
# maps each entry to its generation heat
measured-attribute: generation heat (kcal/mol)

OOC1(c2ccccc2)N=C(c2ccc(C3=NC(OO)(c4ccccc4)C(c4ccccc4)=N3)cc2)N=C1c1ccccc1 (stereo not shown) = 47.1
CC(C)(C)[Si](C)(C)OOC1(c2ccccc2)N=C(c2ccc(C3=NC(OO[Si](C)(C)C(C)(C)C)(c4ccccc4)C(c4ccccc4)=N3)cc2)N=C1c1ccccc1 (stereo not shown) = 147
OOC1(c2ccccc2)N=C(c2cccc(C3=NC(OO)(c4ccccc4)C(c4ccccc4)=N3)c2)N=C1c1ccccc1 (stereo not shown) = 30.5
CC(C)(C)[Si](C)(C)OOC1(c2ccccc2)N=C(c2cccc(C3=NC(OO[Si](C)(C)C(C)(C)C)(c4ccccc4)C(c4ccccc4)=N3)c2)N=C1c1ccccc1 (stereo not shown) = 143

----------
measured-attribute: melting point

CN(C)c1ccc(C2=NC(OO)(c3ccc(F)cc3)C(c3ccc(F)cc3)=N2)cc1 (stereo not shown) [Chemical formula B] = 125 to 128 °C (dec.)
OOC1(c2ccccc2)N=C(c2ccccc2)N=C1c1ccccc1 (stereo not shown) [Chemical formula A] = 108 to 110 °C (dec.)
CC(C)(C)[Si](C)(C)OOC1(c2ccccc2)N=C(c2ccccc2)N=C1c1ccccc1 (stereo not shown) [Chemical formula I] = 93.5 to 96 °C
OOC1(c2ccccc2)N=C(c2ccc(O)cc2)N=C1c1ccccc1 (stereo not shown) [Chemical formula C] = 125 to 127 °C (dec.)
